Reported Relative Signal:Noise (% M2361) values for a set of compounds
TESTED_TARGET: human GLP1R (Homo sapiens, UniProt P43220)
Sequence (P43220 24-463): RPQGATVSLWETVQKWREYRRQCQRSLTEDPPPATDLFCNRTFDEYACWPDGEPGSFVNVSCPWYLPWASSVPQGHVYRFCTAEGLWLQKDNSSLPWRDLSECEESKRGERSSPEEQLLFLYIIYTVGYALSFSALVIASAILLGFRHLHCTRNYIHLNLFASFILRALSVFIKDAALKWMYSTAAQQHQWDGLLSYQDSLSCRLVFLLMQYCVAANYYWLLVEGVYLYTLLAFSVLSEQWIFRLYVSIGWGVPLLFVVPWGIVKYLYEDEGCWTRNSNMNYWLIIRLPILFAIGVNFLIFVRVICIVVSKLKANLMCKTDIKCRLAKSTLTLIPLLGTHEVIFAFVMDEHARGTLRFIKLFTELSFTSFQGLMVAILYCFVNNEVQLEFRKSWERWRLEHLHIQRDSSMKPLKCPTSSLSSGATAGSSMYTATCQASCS
TEST_METHOD_NOTES: Luciferase reporter assay, HEK293/CRE-Luc/hGLP1R (Example 17)
Format: cell-based
Design: engineered to express full-length human GLP1R, cynomolgus GLP1R; expressed in transfected cells; host or cells: HEK293/CRE-Luc
RUN_CONDITIONS: HEK293/CRE-Luc/hGLP1R; relative to M2361 of the same experiment
Where a SMILES comes first, the peptide text is derived from it. [ ]: non-standard residue; d: D form. The star is where a group is joined. Bip(2'-Et,4'-O(CH2)4NH2) = CCc1cc(OCCCCN)ccc1-c1ccc(C[C@H](N)C(=O)O)cc1; Nva(5-(3,5-Me2Ph)) = Cc1cc(C)cc(CCC[C@H](N)C(=O)O)c1; Ala(1H-tetrazol-5-yl) = N[C@@H](Cc1nnn[nH]1)C(=O)O; αMePhe(2-F) = C[C@](N)(Cc1ccccc1F)C(=O)O; X3 = CC(C)(C(=O)*)c1ccn[nH]1
QUANTITY: Relative Signal:Noise (% M2361) (%)

{"COMPOUND": "CCc1cc(OCCCCN)ccc1-c1ccc(C[C@H](NC(=O)[C@H](CC(=O)O)NC(=O)[C@H](CO)NC(=O)[C@@H](NC(=O)[C@](C)(Cc2ccccc2F)NC(=O)[C@@H](NC(=O)CNC(=O)[C@@H](N)CCC(N)=O)[C@@H](C)O)[C@@H](C)O)C(=O)N[C@@H](CCCc2cc(C)cc(C)c2)C(N)=O)cc1", "QUANTITY": "Relative Signal:Noise (% M2361)", "UNIT_STRING": "%", "NUMERIC_READOUT": 4.9}
{"COMPOUND": "CCc1cc(OCCCCN)ccc1-c1ccc(C[C@H](NC(=O)[C@H](CC(=O)O)NC(=O)[C@H](CO)NC(=O)[C@@H](NC(=O)[C@](C)(Cc2ccccc2F)NC(=O)[C@@H](NC(=O)CNC(=O)[C@H](Cc2nn[nH]n2)NC(=O)C(C)(C)c2ccn[nH]2)[C@@H](C)O)[C@@H](C)O)C(=O)N[C@@H](CCCc2cc(C)cc(C)c2)C(N)=O)cc1 [P6] (X3-[Ala(1H-tetrazol-5-yl)]GT[αMePhe(2-F)]TSD[Bip(2'-Et,4'-O(CH2)4NH2)][Nva(5-(3,5-Me2Ph))]-NH2)", "QUANTITY": "Relative Signal:Noise (% M2361)", "UNIT_STRING": "%", "NUMERIC_READOUT": 92.3}
